Data origin, for the record: PubChem BioAssay AID1159580

test: chemical genetic growth profiling, strain panel (AID 1159580);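 further: tested at 20 µM; growth read once vehicle control cultures reached saturation at 30 °C; 1 = growth at the plate median or of vehicle wells; lower values mean less growth of the strain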; details: S. cerevisiae deletion strains, growth OD, locus YNR052C, strain pop2, active compounds read low
Screen size: about 5,500 compounds; about 2,000 (36%) were called active. Roughly 18% stayed inconclusive and do not appear here. The list shows a part of the results. Where a SMILES comes first, the peptide text is derived from it. Bridges are numbered along the chain shown (N, C = ends). [ ]: non-standard residue; d: D form. The star is where a group is joined. ξ: configuration not given here. ξDab(CH2SO3H) = NC(CCNCS(=O)(=O)O)C(=O)O; Heptanoyl(6-Me) = CC(C)CCCCC(=O)*; Dab = NCC[CH](N)C(=O)O
Quick list: normalized growth per entry.
measured endpoint: normalized growth

1) CCC(C)C1NC(=O)C(CCNCS(=O)(=O)O)NC(=O)C(NC(=O)C(CCNCS(=O)(=O)O)NC(=O)C(NC(=O)C(CCNCS(=O)(=O)O)NC(=O)CCCCC(C)C)C(C)O)CCNC(=O)C(C(C)O)NC(=O)C(CCNCS(=O)(=O)O)NC(=O)C(CCNCS(=O)(=O)O)NC(=O)C(C(C)CC)NC1=O (centres undefined) ({Heptanoyl(6-Me)}-[ξDab(CH2SO3H)]T[ξDab(CH2SO3H)][Dab][ξDab(CH2SO3H)]II[ξDab(CH2SO3H)][ξDab(CH2SO3H)]T; lactam 4-C; configuration not given here)	0.968
2) Clc1ccccc1C(c1ccccc1)(c1ccccc1)n1ccnc1	0.0613
3) COc1ccc2c(c1)c(CC(=O)O)c(C)n2C(=O)c1ccc(Cl)cc1	0.99
4) C/C=C(/C)C(=O)OC1CCC2(C)C3CCC4C5(O)CC(O)C6(O)C(CN7CC(C)CCC7C6(C)O)C5(O)CC42OC13O (centres undefined)	1.02
5) CCCOc1ccccc1-c1nc2n[nH]nc2c(=O)[nH]1	1.01
6) Cc1cc(O)c2c(c1)Cc1cccc(O)c1C2=O	0.949
7) CCOP(=S)(OCC)Oc1cc(C)nc(C(C)C)n1	0.99
8) COc1cccc(OC)c1OCCNCC1COc2ccccc2O1 (centres undefined)	0.966
9) COc1cc(C(=O)O[C@H]2CC[C@@]3(C)[C@@H]4CC[C@H]5[C@]6(O)C[C@H](O)[C@@]7(O)[C@@H](CN8C[C@@H](C)CC[C@H]8[C@@]7(C)O)[C@]6(O)C[C@@]53O[C@]24O)cc(OC)c1OC	0.996
10) CC1(C)CC[C@]2(C(=O)O)CC[C@]3(C)C(=CCC4[C@@]5(C)CC[C@@H](O)C(C)(C)C5CC[C@]43C)C2C1 (some centres undefined)	1.03
11) C/C=C(/C)C(=O)O[C@H]1CC[C@@]2(C)[C@@H]3CC[C@H]4[C@]5(O)C[C@H](O)[C@@]6(O)[C@@H](CN7C[C@@H](C)CC[C@H]7[C@@]6(C)O)[C@]5(O)C[C@@]42O[C@]13O	1.01
12) CCOP(=S)(OCC)Oc1nc(Cl)c(Cl)cc1Cl	0.994
13) Fc1ccc(C(c2ccccc2)(c2ccccc2F)n2ccnc2)cc1 (centres undefined)	0.0915
14) COC(=O)C[C@H]1C(C)(C)C(=O)[C@@H]2CC3C4=CC(=O)O[C@@H](c5ccoc5)[C@]4(C)CCC3[C@@]1(C)C2=O (some centres undefined)	0.989

----------
experiment: chemical genetic growth profiling, strain panel (AID 1159580); conditions: S. cerevisiae deletion strains, growth OD, locus YEL003W, strain gim4, active compounds read low
Among all 5,500 compounds or so, about 2,000 (36%) were called active. About 18% were inconclusive and are not listed. Some of the results follow.
Threshold 1: normalized growth strictly smaller gives Fulfilled, otherwise Not fulfilled.

1. Clc1ccccc1C(c1ccccc1)(c1ccccc1)n1ccnc1	Fulfilled
2. C/C=C1\[C@H]2C=C(C)C[C@]1(N)c1ccc(=O)[nH]c1C2	Not fulfilled
3. CC1OC(=O)C(C(C)C)NC(=O)C(C(C)C)OC(=O)C(C(C)C)NC(=O)C(C)OC(=O)C(C(C)C)NC(=O)C(C(C)C)OC(=O)C(C(C)C)NC(=O)C(C)OC(=O)C(C(C)C)NC(=O)C(C(C)C)OC(=O)C(C(C)C)NC1=O (stereo not drawn)	Fulfilled
4. COc1c(-c2coc3cc4c(cc3c2=O)CC(OC(C)=O)C(C)(C)O4)ccc2c1C=CC(C)(C)O2 (stereo not drawn)	Not fulfilled
5. C[C@@H]1CC[C@H]2[C@@H](C)C(=O)O[C@@H]3O[C@@]4(C)CC[C@@H]1[C@]32OO4	Fulfilled
6. CC(C)=CCCC1(C)C=Cc2c(O)c3c(c(CC=C(C)C)c2O1)OC12C(=CCCC1C(C)(C)O[C@@]2(C/C=C(\C)C(=O)O)C(=O)O)C3=O (stereo partly drawn)	Fulfilled
7. Cc1ccc(-c2cc(C(F)(F)F)nn2-c2ccc(S(N)(=O)=O)cc2)cc1	Not fulfilled

----------
assay: chemical genetic growth profiling, strain panel (AID 1159580);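 further: tested at 20 µM; growth read once vehicle control cultures reached saturation at 30 °C; 1 = growth at the plate median or of vehicle wells; lower values mean less growth of the strain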; settings: S. cerevisiae deletion strains, growth OD, locus YLR039C, strain RIC1, active compounds read low
Screen size: about 5,500 compounds; about 2,000 (36%) were called active. Another 18% or so got no clear call; they are omitted. This is one part of the list.
Note to self: use Condition met only for normalized growth readings below 1; a reading exactly at 1 still gets Condition not met.

1. O=C1C(O)=C(O)C(=O)C(O)=C1O	Condition met
2. CCOC(=O)c1nc(-c2ccccc2)sc1C(=O)OCC	Condition met
3. CC(=O)OC1CC[C@@]2(C)C(CC[C@]3(C)C2CCC2C4CC(C)(C)CCC4(C(=O)O)CC[C@]23C)C1(C)C (some centres not stated)	Condition not met
4. CCOC(=O)c1ccc2[nH]c(-c3ccccc3)cc(=O)c2c1	Condition not met
5. C[C@@H]1OC(O[C@H]2[C@H](O)[C@@H](O)[C@H](OC[C@H]3O[C@@H](OC(=O)[C@]45CCC(C)(C)CC4C4=CCC6[C@@]7(C)CC[C@H](OC8OC[C@H](O)[C@H](O)[C@H]8OC8O[C@@H](C)[C@H](O)[C@@H](O)[C@H]8O)[C@@](C)(CO)C7CC[C@@]6(C)[C@]4(C)CC5)[C@H](O)[C@@H](O)[C@@H]3O)O[C@@H]2CO)[C@H](O)[C@H](O)[C@H]1O (some centres not stated)	Condition not met

----------
test: chemical genetic growth profiling, strain panel (AID 1159580);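 further: tested at 20 µM; growth read once vehicle control cultures reached saturation at 30 °C; 1 = growth at the plate median or of vehicle wells; lower values mean less growth of the strain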; conditions: S. cerevisiae deletion strains, growth OD, locus YDR226W, strain ADK1, active compounds read low
In all, about 5,500 compounds went through this assay and about 2,000 (36%) were called active. Roughly 18% stayed inconclusive and do not appear here. The list shows a part of the results.
Reported values of normalized growth for individual entries
measured endpoint: normalized growth

1. CCCc1nc(-c2ccccn2)[nH]c(=O)c1CC1CC1	0.954
2. COc1cccc(NC(=S)NC2CC(C)CC(C)(C)C2)c1 (stereo unspecified)	0.972
3. O=C(NCCNc1ncc(C(F)(F)F)cc1Cl)C(F)(F)Sc1ccccc1	0.982
4. O=C(NCC(c1ccccc1)c1c[nH]c2ccccc12)c1ccc(C(F)(F)F)cc1 (stereo unspecified)	0.971
5. Cc1nc(-c2ccccn2)[nH]c(=O)c1Cc1c(Cl)cccc1Cl	0.959
6. C=CCc1c(CCC)nc(-c2ccccn2)[nH]c1=O	0.94

----------
assay: chemical genetic growth profiling, strain panel (AID 1159580);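 further: tested at 20 µM; growth read once vehicle control cultures reached saturation at 30 °C; 1 = growth at the plate median or of vehicle wells; lower values mean less growth of the strain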; conditions: S. cerevisiae deletion strains, growth OD, locus YNL250W, strain rad50
Hit rate of the full screen: of about 5,500 compounds, about 2,000 (36%) were called active. Another 18% or so got no clear call; they are omitted. Cut-off read from the data, not from the text of the source: active = normalized growth mostly below about 0.91 (no sharp cut-off); inconclusive = no clear call, values can overlap the other calls; inactive = mostly above about 0.92. The list shows a part of the results.
Classes used: 1 (active), 0 (inactive)

1. C[C@@H]1OC(O[C@H]2C(O[C@H]3CC[C@@]4(C)C(CC[C@]5(C)C4CC=C4C6CC(C)(C)CC[C@]6(C(=O)O)CC[C@]45C)[C@]3(C)CO)OC[C@H](O)[C@@H]2O)[C@H](O)[C@H](O)[C@H]1O (stereo not given in full)	1
2. CC1(C)CC[C@@]2(C(=O)O)C(C1)C1=CCC3[C@@]4(C)CC[C@H](O)C(C)(C)C4CC[C@@]3(C)[C@]1(C)C[C@@H]2O (stereo not given in full)	0
3. CC(=O)OC1CC[C@@]2(C)C(CC[C@]3(C)C2CCC2C4CC(C)(C)CCC4(C(=O)O)CC[C@]23C)C1(C)C (stereo not given in full)	0
4. C/C=C(/C)C(=O)O[C@@H]1[C@H](OC(C)=O)[C@@]2(CO)C(CC1(C)C)C1=CCC3[C@@]4(C)CC[C@H](O[C@@H]5O[C@H](C(=O)O)[C@@H](O[C@@H]6O[C@H](CO)[C@@H](O)[C@H](O)[C@H]6O)[C@H](O)[C@H]5O[C@@H]5O[C@H](CO)[C@@H](O)[C@H](O)[C@H]5O)[C@](C)(CO)C4CC[C@@]3(C)[C@]1(C)C[C@H]2O (stereo not given in full)	0
5. C[C@@H]1CC[C@]2(C(=O)O)CC[C@]3(C)C(=CCC4[C@@]5(C)CC[C@H](O)C(C)(C)C5CC[C@]43C)C2[C@H]1C (stereo not given in full)	0
